Tested on: NCI-H460
PROCEDURE_TEXT: Cytotoxicity against human NCI-H460 cells after 24 hrs by SRB assay
Assay type: functional
CONDITION: NCI-H460, 24 h

{"MOLECULAR_STRING": "O=C(/C=C/c1cc2ccccc2[nH]c1=O)c1ccc(Cl)cc1", "GI50 / µM": 3.99}
{"MOLECULAR_STRING": "COc1ccc(C(=O)/C=C/c2cc3ccccc3[nH]c2=O)cc1", "GI50 / µM": 2.75}
{"MOLECULAR_STRING": "O=C(/C=C/c1cc2ccccc2[nH]c1=O)c1ccc(O)cc1", "GI50 / µM": 2.39}
{"MOLECULAR_STRING": "O=C(/C=C/c1cc2ccccc2[nH]c1=O)/C=C/c1cc2ccccc2[nH]c1=O", "GI50 / µM": 4.63}

###

System: COLO 205
PROCEDURE_TEXT: Cytotoxicity against human COLO205 cells after 24 hrs by SRB assay
Type: cell-based
CONDITION: colo 205, 24 h

{"MOLECULAR_STRING": "COc1ccc(C(=O)/C=C/c2cc3ccccc3[nH]c2=O)cc1", "SYSTEM_TESTED": "COLO 205", "MODIFIER_SIGN": "=", "LC50 (µM)": 77.6}
{"MOLECULAR_STRING": "O=C(/C=C/c1cc2ccccc2[nH]c1=O)c1ccc(O)cc1", "SYSTEM_TESTED": "COLO 205", "MODIFIER_SIGN": "=", "LC50 (µM)": 76.8}
{"MOLECULAR_STRING": "O=C(/C=C/c1cc2ccccc2[nH]c1=O)c1ccc(Cl)cc1", "SYSTEM_TESTED": "COLO 205", "MODIFIER_SIGN": ">", "LC50 (µM)": 100}
{"MOLECULAR_STRING": "O=C(/C=C/c1cc2ccccc2[nH]c1=O)/C=C/c1cc2ccccc2[nH]c1=O", "SYSTEM_TESTED": "COLO 205", "MODIFIER_SIGN": ">", "LC50 (µM)": 100}

###

This section presents compounds with their documented TGI values.
Tested on: CAKI-1
PROCEDURE_TEXT: Cytotoxicity against human CAKI-1 cells after 24 hrs by SRB assay
Type: functional
CONDITION: CAKI-1, 24 h

{"MOLECULAR_STRING": "COc1ccc(C(=O)/C=C/c2cc3ccccc3[nH]c2=O)cc1", "UNIT_TEXT": "µM", "MODIFIER_SIGN": "=", "TGI": 3.51}
{"MOLECULAR_STRING": "O=C(/C=C/c1cc2ccccc2[nH]c1=O)c1ccc(Cl)cc1", "UNIT_TEXT": "µM", "MODIFIER_SIGN": "=", "TGI": 3.3}
{"MOLECULAR_STRING": "O=C(/C=C/c1cc2ccccc2[nH]c1=O)c1ccc(O)cc1", "UNIT_TEXT": "µM", "MODIFIER_SIGN": ">", "TGI": 100}
{"MOLECULAR_STRING": "O=C(/C=C/c1cc2ccccc2[nH]c1=O)/C=C/c1cc2ccccc2[nH]c1=O", "UNIT_TEXT": "µM", "MODIFIER_SIGN": ">", "TGI": 100}

###

Tested on: UACC-62
PROCEDURE_TEXT: Cytotoxicity against human UACC62 cells after 24 hrs by SRB assay
Format: functional
CONDITION: UACC-62, 24 h
Reported TGI values for the following compounds.

{"MOLECULAR_STRING": "O=C(/C=C/c1cc2ccccc2[nH]c1=O)c1ccc(Cl)cc1", "SYSTEM_TESTED": "UACC-62", "TGI": "54.3 µM"}
{"MOLECULAR_STRING": "O=C(/C=C/c1cc2ccccc2[nH]c1=O)c1ccc(O)cc1", "SYSTEM_TESTED": "UACC-62", "TGI": "8.73 µM"}
{"MOLECULAR_STRING": "O=C(/C=C/c1cc2ccccc2[nH]c1=O)/C=C/c1cc2ccccc2[nH]c1=O", "SYSTEM_TESTED": "UACC-62", "TGI": "> 100 µM"}
{"MOLECULAR_STRING": "COc1ccc(C(=O)/C=C/c2cc3ccccc3[nH]c2=O)cc1", "SYSTEM_TESTED": "UACC-62", "TGI": "19.3 µM"}

###

Tested on: MDA-MB-468
PROCEDURE_TEXT: Cytotoxicity against human MDA-MB-468 cells after 24 hrs by SRB assay
Type: cell-based
CONDITION: mda-mb-468, 24 h
// reported LC50 per item

{"MOLECULAR_STRING": "COc1ccc(C(=O)/C=C/c2cc3ccccc3[nH]c2=O)cc1", "UNIT_TEXT": "µM", "MODIFIER_SIGN": "=", "LC50": 39.8}
{"MOLECULAR_STRING": "O=C(/C=C/c1cc2ccccc2[nH]c1=O)/C=C/c1cc2ccccc2[nH]c1=O", "UNIT_TEXT": "µM", "MODIFIER_SIGN": ">", "LC50": 100}
{"MOLECULAR_STRING": "O=C(/C=C/c1cc2ccccc2[nH]c1=O)c1ccc(Cl)cc1", "UNIT_TEXT": "µM", "MODIFIER_SIGN": "=", "LC50": 53.2}
{"MOLECULAR_STRING": "O=C(/C=C/c1cc2ccccc2[nH]c1=O)c1ccc(O)cc1", "UNIT_TEXT": "µM", "MODIFIER_SIGN": "=", "LC50": 19.8}

###

System: U-251
PROCEDURE_TEXT: Cytotoxicity against human U251 cells after 24 hrs by SRB assay
Format: cell-based
CONDITION: u-251, 24 h
Readings of LC50 for the listed compounds

{"MOLECULAR_STRING": "O=C(/C=C/c1cc2ccccc2[nH]c1=O)c1ccc(Cl)cc1", "UNIT_TEXT": "µM", "MODIFIER_SIGN": "=", "LC50": 39.7}
{"MOLECULAR_STRING": "O=C(/C=C/c1cc2ccccc2[nH]c1=O)/C=C/c1cc2ccccc2[nH]c1=O", "UNIT_TEXT": "µM", "MODIFIER_SIGN": ">", "LC50": 100}
{"MOLECULAR_STRING": "COc1ccc(C(=O)/C=C/c2cc3ccccc3[nH]c2=O)cc1", "UNIT_TEXT": "µM", "MODIFIER_SIGN": ">", "LC50": 100}
{"MOLECULAR_STRING": "O=C(/C=C/c1cc2ccccc2[nH]c1=O)c1ccc(O)cc1", "UNIT_TEXT": "µM", "MODIFIER_SIGN": "=", "LC50": 45.3}

###

Tested on: UACC-62
PROCEDURE_TEXT: Cytotoxicity against human UACC62 cells after 24 hrs by SRB assay
Assay type: cell-based
CONDITION: uacc-62, 24 h

{"MOLECULAR_STRING": "O=C(/C=C/c1cc2ccccc2[nH]c1=O)c1ccc(O)cc1", "MODIFIER_SIGN": "=", "LC50 / µM": 39.6}
{"MOLECULAR_STRING": "COc1ccc(C(=O)/C=C/c2cc3ccccc3[nH]c2=O)cc1", "MODIFIER_SIGN": "=", "LC50 / µM": 60.2}
{"MOLECULAR_STRING": "O=C(/C=C/c1cc2ccccc2[nH]c1=O)c1ccc(Cl)cc1", "MODIFIER_SIGN": ">", "LC50 / µM": 100}
{"MOLECULAR_STRING": "O=C(/C=C/c1cc2ccccc2[nH]c1=O)/C=C/c1cc2ccccc2[nH]c1=O", "MODIFIER_SIGN": ">", "LC50 / µM": 100}

###

In this section we review reported TGI values for a set of compounds.
System: NCI-H23
PROCEDURE_TEXT: Cytotoxicity against human NCI-H23 cells after 24 hrs by SRB assay
Format: functional
CONDITION: NCI-H23, 24 h

{"MOLECULAR_STRING": "O=C(/C=C/c1cc2ccccc2[nH]c1=O)/C=C/c1cc2ccccc2[nH]c1=O", "SYSTEM_TESTED": "NCI-H23", "TGI, µM": 87.7}
{"MOLECULAR_STRING": "O=C(/C=C/c1cc2ccccc2[nH]c1=O)c1ccc(Cl)cc1", "SYSTEM_TESTED": "NCI-H23", "TGI, µM": 93.3}
{"MOLECULAR_STRING": "O=C(/C=C/c1cc2ccccc2[nH]c1=O)c1ccc(O)cc1", "SYSTEM_TESTED": "NCI-H23", "TGI, µM": 20}
{"MOLECULAR_STRING": "COc1ccc(C(=O)/C=C/c2cc3ccccc3[nH]c2=O)cc1", "SYSTEM_TESTED": "NCI-H23", "TGI, µM": 14.9}
